B1: INTS3 (parent)
chain: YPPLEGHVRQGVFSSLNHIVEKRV

variants of: B1; assay: protein stability index of a GFP-peptide fusion (GPS, HEK-293T) (PSI 1-6); higher = more stable; settings: c terminus: a fixed tail appended;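 also: lentivirally expressed fusions sorted by FACS into six bins by GFP to DsRed ratio, PSI derived from sequencing read proportions per bin multiplied by bin number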

{"input.sequence": "YPPLEGHVRQGVFSSLGHIVEKRV [N17G]", "protein stability index": 2.46}
{"input.sequence": "YPPLEGHVRQGVFNSLNHIVEKRV [S14N]", "protein stability index": 2.41}
{"input.sequence": "YPPLESHVRQGVFSSLNHIVEKRV [G6S]", "protein stability index": 2.73}
{"input.sequence": "YFPLEGHVRQGVFSSLNHIVEKRV [P2F]", "protein stability index": 2.71}
{"input.sequence": "YPPLEGHVRQGVFSSPNHIVEKRV [L16P]", "protein stability index": 2.93}
{"input.sequence": "YPPLEGAVRQGVFSSLNHIVEKRV [H7A]", "protein stability index": 2.68}
{"input.sequence": "YPPLEGHVRQGVFSSINHIVEKRV [L16I]", "protein stability index": 2.31}
{"input.sequence": "YPPLEGHVRQGVFSSLNHIVEDRV [K22D]", "protein stability index": 2.2}
{"input.sequence": "YPPLEGHVRQGVFSSLNHIVEKRP [V24P]", "protein stability index": 2.74}
{"input.sequence": "YPPLEGHVRQGVFSSLNHIIEKRV [V20I]", "protein stability index": 2.04}
{"input.sequence": "YPPLEGHVRQGVFSSLNHIVEKRW [V24W]", "protein stability index": 2.68}
{"input.sequence": "YPPLEGHVRQGVFSSLNHIVIKRV [E21I]", "protein stability index": 1.74}
{"input.sequence": "YPPLEGHVRQGVFSSLNHIVAKRV [E21A]", "protein stability index": 2.23}
{"input.sequence": "KPPLEGHVRQGVFSSLNHIVEKRV [Y1K]", "protein stability index": 4.07}
{"input.sequence": "YPPLEGHTRQGVFSSLNHIVEKRV [V8T]", "protein stability index": 3}
{"input.sequence": "YPPLEGSVRQGVFSSLNHIVEKRV [H7S]", "protein stability index": 2.97}
{"input.sequence": "YPFLEGHVRQGVFSSLNHIVEKRV [P3F]", "protein stability index": 2.29}
{"input.sequence": "YPPLEGHVRQGVFSSLNHIVEKNV [R23N]", "protein stability index": 2.6}
{"input.sequence": "YPTLEGHVRQGVFSSLNHIVEKRV [P3T]", "protein stability index": 2.4}
{"input.sequence": "YPPLKGHVRQGVFSSLNHIVEKRV [E5K]", "protein stability index": 2.1}
{"input.sequence": "YPPLEGHVRQGVFSSLNHIHEKRV [V20H]", "protein stability index": 2.36}
{"input.sequence": "YPPLEGHVRQGVFSSLEHIVEKRV [N17E]", "protein stability index": 2.63}
